assay: Cross Resistance (antiviral activity)of the compound with 4xAZT/Y181C (Non nucleoside reverse transcriptase inhibitor) resistant HIV isolate from cytopathic cell killing assay
OBSERVED_PROPERTY: pEC50
Give bare numbers, as −log10 of the molar value.

Ask: Kindly indicate its recorded pEC50. Item: CC1Cn2c(=O)[nH]c3cccc(c32)CN1 (stereo unspecified)
Reply: 5.70

----------
assay: Cross Resistance (antiviral activity) with 4xAZT/L100I (Non nucleoside reverse transcriptase inhibitor) resistant HIV isolate from cytopathic cell killing assay
OBSERVED_PROPERTY: EC50 (nM)
One number for each entry, in nM.

[[record]]
molecule = "Fc1cccc(F)c1Cn1c(-c2c(F)cccc2F)nc2ccccc21"
value_measured = 840

[[record]]
molecule = "Fc1cccc(F)c1C1SCc2nc3ccccc3n21 (centres undefined)"
value_measured = 1700


We next turn to a different molecule, shown below.
Ask: Kindly indicate its recorded EC50. Item: `Cc1cccc2c1nc(-c1c(F)cccc1F)n2Cc1c(F)cccc1F`
Reply: 200

----------
Can you tell me EC50 for the items I'm about to list?
assay: Cross Resistance (antiviral activity) with Y181C (Non nucleoside reverse transcriptase inhibitor) resistant HIV isolate from cytopathic cell killing assay
Answers are plain numbers, in µM.

Some solved entries appear below for comparison.
[[record]]
compound = "Fc1cccc(F)c1C1SCc2nc3ccccc3n21 (stereo not drawn)"
value_measured = 16.3

[[record]]
compound = "CC1Cn2c(=O)[nH]c3cccc(c32)CN1 (stereo not drawn)"
value_measured = 4.2


We next turn to a different compound, shown below.
Ask: Kindly indicate its recorded EC50. Item: `Cc1cccc2c1nc(-c1c(F)cccc1F)n2Cc1c(F)cccc1F`
Reply: 6

----------
assay: Cross Resistance (antiviral activity) with V106A (Non nucleoside reverse transcriptase inhibitor) resistant HIV isolate from cytopathic cell killing assay
OBSERVED_PROPERTY: EC50

Some solved entries appear below for comparison.
[[record]]
molecule = "Cc1cccc2c1nc(-c1c(F)cccc1F)n2Cc1c(F)cccc1F"
value_measured = "20 µM"

[[record]]
molecule = "Fc1cccc(F)c1C1SCc2nc3ccccc3n21 (centres undefined)"
value_measured = "> 20 µM"

[[record]]
molecule = "CC1Cn2c(=O)[nH]c3cccc(c32)CN1 (centres undefined)"
value_measured = "12.5 µM"


Ask: Kindly indicate its recorded EC50. Item: `Fc1cccc(F)c1Cn1c(-c2c(F)cccc2F)nc2ccccc21`
Reply: > 20 µM

----------
assay: Cross Resistance (antiviral activity) with Y188C (Non nucleoside reverse transcriptase inhibitor) resistant HIV isolate from cytopathic cell killing assay
Can you tell me EC50 for the items I'm about to list?
One number for each entry, in µM.

[[record]]
smiles_notation = "Fc1cccc(F)c1Cn1c(-c2c(F)cccc2F)nc2ccccc21"
observed_property = "EC50"
unit_abbreviation = "µM"
value_measured = 11.7


We next turn to a different compound, shown below.
Ask: Kindly indicate its recorded EC50. Item: `Cc1cccc2c1nc(-c1c(F)cccc1F)n2Cc1c(F)cccc1F`
Reply: 2.3

----------
assay: Cross Resistance (antiviral activity) with K103N (Non nucleoside reverse transcriptase inhibitor) resistant HIV isolate from cytopathic cell killing assay
Can you tell me EC50 for the items I'm about to list?
One number for each entry, in µM.

[[record]]
compound = "Fc1cccc(F)c1Cn1c(-c2c(F)cccc2F)nc2ccccc21"
unit_abbreviation = "µM"
value_measured = 12.9

[[record]]
compound = "CC1Cn2c(=O)[nH]c3cccc(c32)CN1 (centres undefined)"
unit_abbreviation = "µM"
value_measured = 17.4


Ask: Kindly indicate its recorded EC50. Item: `Cc1cccc2c1nc(-c1c(F)cccc1F)n2Cc1c(F)cccc1F`
Reply: 8.1

----------
assay: Cross Resistance (antiviral activity) with K101E (Non nucleoside reverse transcriptase inhibitor) resistant HIV isolate from cytopathic cell killing assay
OBSERVED_PROPERTY: pEC50
Answers are plain numbers, as −log10 of the molar value.

Ask: Kindly indicate its recorded pEC50. Item: `Cc1cccc2c1nc(-c1c(F)cccc1F)n2Cc1c(F)cccc1F`
Reply: 4.78

----------
experiment: Cross Resistance (antiviral activity) with V108I (Non nucleoside reverse transcriptase inhibitor) resistant HIV isolate from cytopathic cell killing assay
OBSERVED_PROPERTY: EC50 (µM)
One number for each entry, in µM.

[[record]]
compound = "CC1Cn2c(=O)[nH]c3cccc(c32)CN1 (stereo not drawn)"
observed_property = "EC50"
unit_abbreviation = "µM"
value_measured = 2.4

[[record]]
compound = "Fc1cccc(F)c1C1SCc2nc3ccccc3n21 (stereo not drawn)"
observed_property = "EC50"
unit_abbreviation = "µM"
value_measured = 9.7


Ask: Kindly indicate its recorded EC50. Item: `Fc1cccc(F)c1Cn1c(-c2c(F)cccc2F)nc2ccccc21`
Reply: 10.4

----------
assay: Cross Resistance (antiviral activity) with L74V (nucleoside reverse transcriptase inhibitor) resistant HIV isolate from cytopathic cell killing assay
Can you tell me pEC50 for the items I'm about to list?
Answers are plain numbers, as −log10 of the molar value.

Some solved entries appear below for comparison.
[[record]]
compound = "Cc1cccc2c1nc(-c1c(F)cccc1F)n2Cc1c(F)cccc1F"
value_measured = 7.00

[[record]]
compound = "CC1Cn2c(=O)[nH]c3cccc(c32)CN1 (centres undefined)"
value_measured = 6.70

[[record]]
compound = "Fc1cccc(F)c1C1SCc2nc3ccccc3n21 (centres undefined)"
value_measured = 6.15


Ask: Kindly indicate its recorded pEC50. Item: `Fc1cccc(F)c1Cn1c(-c2c(F)cccc2F)nc2ccccc21`
Reply: 6.34

----------
assay: Cross Resistance (antiviral activity) with Y181C (Non nucleoside reverse transcriptase inhibitor) resistant HIV isolate from cytopathic cell killing assay
OBSERVED_PROPERTY: pEC50
One number for each entry, as −log10 of the molar value.

Ask: Kindly indicate its recorded pEC50. Item: `Fc1cccc(F)c1Cn1c(-c2c(F)cccc2F)nc2ccccc21`
Reply: 4.82

----------
assay: Cross Resistance (antiviral activity) with NL4-3(WT) NNRTI (Non nucleoside reverse transcriptase inhibitor) resistant HIV isolate from cytopathic cell killing assay
Can you tell me EC50 for the items I'm about to list?
Answers are plain numbers, in µM.

Some solved entries appear below for comparison.
[[record]]
compound = "Cc1cccc2c1nc(-c1c(F)cccc1F)n2Cc1c(F)cccc1F"
unit_abbreviation = "µM"
value_measured = 0.5

[[record]]
compound = "CC1Cn2c(=O)[nH]c3cccc(c32)CN1 (centres undefined)"
unit_abbreviation = "µM"
value_measured = 0.3

[[record]]
compound = "Fc1cccc(F)c1Cn1c(-c2c(F)cccc2F)nc2ccccc21"
unit_abbreviation = "µM"
value_measured = 1.85


We next turn to a different compound, shown below.
Ask: Kindly indicate its recorded EC50. Item: Fc1cccc(F)c1C1SCc2nc3ccccc3n21 (centres undefined)
Reply: 1.7

----------
test: Cross Resistance (antiviral activity) with V179D (Non nucleoside reverse transcriptase inhibitor) resistant HIV isolate from cytopathic cell killing assay
OBSERVED_PROPERTY: pEC50
Answers are plain numbers, as −log10 of the molar value.

Some solved entries appear below for comparison.
[[record]]
compound = "CC1Cn2c(=O)[nH]c3cccc(c32)CN1 (centres undefined)"
value_measured = 5.21

[[record]]
compound = "Fc1cccc(F)c1C1SCc2nc3ccccc3n21 (centres undefined)"
value_measured = 5.51

[[record]]
compound = "Fc1cccc(F)c1Cn1c(-c2c(F)cccc2F)nc2ccccc21"
value_measured = 5.64


We next turn to a different compound, shown below.
Ask: Kindly indicate its recorded pEC50. Item: `Cc1cccc2c1nc(-c1c(F)cccc1F)n2Cc1c(F)cccc1F`
Reply: 6.30

----------
assay: Cross Resistance (antiviral activity) with 4xAZT (nucleoside reverse transcriptase inhibitor) resistant HIV isolate from cytopathic cell killing assay
Can you tell me EC50 for the items I'm about to list?
Give bare numbers, in nM.

Some solved entries appear below for comparison.
[[record]]
compound = "Cc1cccc2c1nc(-c1c(F)cccc1F)n2Cc1c(F)cccc1F"
value_measured = 100

[[record]]
compound = "Fc1cccc(F)c1C1SCc2nc3ccccc3n21 (centres undefined)"
value_measured = 1500

[[record]]
compound = "Fc1cccc(F)c1Cn1c(-c2c(F)cccc2F)nc2ccccc21"
value_measured = 270


Ask: Kindly indicate its recorded EC50. Item: CC1Cn2c(=O)[nH]c3cccc(c32)CN1 (centres undefined)
Reply: 300
